- SYSTEM_TESTED: polo-box domain (PBD) of polo-like kinase 1 (PLK1) (UniProt P53350)
- Sequence (P53350 367-603 limits assumed): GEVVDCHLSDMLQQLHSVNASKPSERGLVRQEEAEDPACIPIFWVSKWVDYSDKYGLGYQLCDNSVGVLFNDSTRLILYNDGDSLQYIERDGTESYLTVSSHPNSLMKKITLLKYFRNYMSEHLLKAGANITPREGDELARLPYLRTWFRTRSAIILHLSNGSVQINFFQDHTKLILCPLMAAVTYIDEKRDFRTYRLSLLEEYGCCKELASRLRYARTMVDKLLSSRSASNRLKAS
- PROTOCOL_TEXT: fluorescence polarization competition, displacement of tracer peptide from PLK1 PBD
Square brackets hold non-standard residues; d marks the D form. Ends that are not written are not given here. * marks the point of attachment. Benzoyl(4-octyl) = CCCCCCCCc1ccc(C(=O)*)cc1; pT = C[C@@H](OP(=O)(O)O)[C@H](N)C(=O)O
ASSAY_METRIC: pIC50
Keep it numeric: pIC50 is minus log10 of the concentration in mol/L.

What measured pIC50 goes with {Benzoyl(4-octyl)}-S[pT]AI [Compound No. 15, 4-octylbenzamide N-capped S[pT]AI (SEQ ID NO: 13)] ?
6.39
